molecular target: T1, his-tagged hTfR1 (Acro Biosystems p/n CD1-H5243) (human, UniProt P02786 89-760); experiment: SPR, Biacore X100, His-tagged TfR1 captured by anti-His
T1 construct: Bought reagent of the SPR assay
T1 sequence (P02786 89-760 limits assumed): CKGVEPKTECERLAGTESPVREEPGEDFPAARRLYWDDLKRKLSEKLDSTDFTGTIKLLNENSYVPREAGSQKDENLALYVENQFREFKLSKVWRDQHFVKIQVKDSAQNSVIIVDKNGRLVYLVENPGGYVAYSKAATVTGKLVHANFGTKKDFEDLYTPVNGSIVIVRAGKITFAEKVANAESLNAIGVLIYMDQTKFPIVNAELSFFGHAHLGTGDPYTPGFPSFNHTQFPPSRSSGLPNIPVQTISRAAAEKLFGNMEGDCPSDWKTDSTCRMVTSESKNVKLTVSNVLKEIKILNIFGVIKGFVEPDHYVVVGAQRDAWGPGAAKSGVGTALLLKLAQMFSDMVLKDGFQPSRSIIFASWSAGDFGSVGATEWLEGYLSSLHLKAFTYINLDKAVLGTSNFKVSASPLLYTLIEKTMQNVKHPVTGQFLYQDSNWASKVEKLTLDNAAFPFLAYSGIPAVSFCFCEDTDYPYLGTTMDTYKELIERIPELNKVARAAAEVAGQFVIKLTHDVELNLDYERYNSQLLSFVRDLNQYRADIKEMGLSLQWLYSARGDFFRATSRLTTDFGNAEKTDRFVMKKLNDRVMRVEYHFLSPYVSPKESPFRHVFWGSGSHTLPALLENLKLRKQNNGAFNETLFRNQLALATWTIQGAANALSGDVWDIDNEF
Below, each entry is listed alongside its reported koff.
Numbers only here, please. The scale is s⁻¹.

Challenge: For Fab0061 (Fab, V domains shown) VH: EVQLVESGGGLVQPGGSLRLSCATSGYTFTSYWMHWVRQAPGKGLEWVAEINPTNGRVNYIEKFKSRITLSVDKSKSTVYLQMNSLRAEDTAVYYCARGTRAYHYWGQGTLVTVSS VL: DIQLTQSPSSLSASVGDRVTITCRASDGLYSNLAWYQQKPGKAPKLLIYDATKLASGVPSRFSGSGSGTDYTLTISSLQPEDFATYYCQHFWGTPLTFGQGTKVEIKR , what is its reported koff?
Response given: 0.00101

Challenge: Would you mind telling me what koff value was observed for Fab0063 (Fab, V domains shown) VH: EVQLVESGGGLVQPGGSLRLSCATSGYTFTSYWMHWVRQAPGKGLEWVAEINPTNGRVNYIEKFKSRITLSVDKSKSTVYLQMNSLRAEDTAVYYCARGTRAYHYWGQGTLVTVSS VL: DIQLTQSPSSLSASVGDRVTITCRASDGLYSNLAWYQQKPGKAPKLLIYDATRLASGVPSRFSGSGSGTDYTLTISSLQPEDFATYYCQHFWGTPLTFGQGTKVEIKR ?
Response given: 0.00105

Challenge: Report koff for Fab0072 (Fab, V domains shown) VH: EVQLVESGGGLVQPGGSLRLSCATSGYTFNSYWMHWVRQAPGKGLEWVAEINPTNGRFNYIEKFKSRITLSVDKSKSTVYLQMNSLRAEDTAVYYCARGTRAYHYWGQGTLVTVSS VL: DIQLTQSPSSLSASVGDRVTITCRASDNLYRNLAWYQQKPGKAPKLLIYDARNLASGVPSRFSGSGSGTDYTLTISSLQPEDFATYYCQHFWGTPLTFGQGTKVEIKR please.
Response given: 0.000614

Challenge: Would you kindly share the measured koff for Fab0074 (Fab, V domains shown) VH: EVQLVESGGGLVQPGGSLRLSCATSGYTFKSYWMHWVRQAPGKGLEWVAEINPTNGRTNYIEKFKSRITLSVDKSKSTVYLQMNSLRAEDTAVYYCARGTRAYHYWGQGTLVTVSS VL: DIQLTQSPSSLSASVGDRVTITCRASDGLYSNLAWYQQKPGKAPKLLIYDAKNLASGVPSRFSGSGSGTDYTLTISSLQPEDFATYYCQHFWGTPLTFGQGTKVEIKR ?
Response given: 0.000782

Challenge: So what's the measured koff for this one? Fab0070 (Fab, V domains shown) VH: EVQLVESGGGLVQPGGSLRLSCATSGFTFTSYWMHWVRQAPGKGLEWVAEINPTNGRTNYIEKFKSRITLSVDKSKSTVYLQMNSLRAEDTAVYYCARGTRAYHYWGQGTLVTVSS VL: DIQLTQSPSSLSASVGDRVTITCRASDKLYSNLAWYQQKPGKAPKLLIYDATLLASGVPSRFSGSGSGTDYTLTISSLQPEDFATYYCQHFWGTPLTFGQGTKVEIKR
Response given: 0.0012
